- procedure-text: Cytotoxicity against human Hep2 cells assessed as reduction in cell viability after 3 days by CellTiter-Glo assay
- Type: cell-based
- experimental-context: HEp-2 cells
measurement-type: CC50 at 72 h

The examples below pair each entry with its known result.
>  <molecule>
COc1ncnc2c1c1ccn(C)c1n2[C@@H]1O[C@H](CO)[C@@H](O)[C@H]1O

>  <CC50 at 72 h>
> 44.4 µM

$$$$
>  <molecule>
Cn1ccc2c3c(N)ncnc3n([C@@H]3O[C@H](CO)[C@@H](O)[C@H]3O)c21

>  <CC50 at 72 h>
34.6 to 44.4 µM

$$$$
>  <molecule>
OC[C@H]1O[C@@H](n2c3ccoc3c3c(-c4ccco4)ncnc32)[C@H](O)[C@@H]1O

>  <CC50 at 72 h>
> 44.4 µM

$$$$
>  <molecule>
COc1ncnc2c1c1c(ccn1C)n2[C@@H]1O[C@H](CO)[C@@H](O)[C@H]1O

>  <CC50 at 72 h>
> 44.4 µM

$$$$
>  <molecule>
CC(C)C(=O)OC[C@H]1O[C@@H](n2ccc(N)nc2=O)[C@](C)(F)[C@@H]1OC(=O)C(C)C [MERICITABINE]

>  <CC50 at 72 h>
> 44.4 µM

$$$$
>  <molecule>
Nc1ncnc2c1c1occc1n2[C@@H]1O[C@H](CO)[C@@H](O)[C@H]1O

>  <CC50 at 72 h>
> 44.4 µM

$$$$
>  <molecule>
Cn1ccc2c1c1c(N)ncnc1n2[C@@H]1O[C@H](CO)[C@@H](O)[C@H]1O

>  <CC50 at 72 h>
40.9 to 44.4 µM

$$$$
>  <molecule>
Cn1ccc2c3c(Cl)ncnc3n([C@@H]3O[C@H](CO)[C@@H](O)[C@H]3O)c21

>  <CC50 at 72 h>
> 44.4 µM

$$$$

Query: GET /values?readout=CC50 at 72 h&item= `Cn1ccc2c1c1c(Cl)ncnc1n2[C@@H]1O[C@H](CO)[C@@H](O)[C@H]1O`
Result: > 44.4 µM
